Test: MEK solubility of the dyes
Type: physicochemical
Settings: solubility in methyl ethyl ketone at 20° C.
VALUE KIND: MEK Solubility
Please answer using a numeric value trailed by its unit.

Q: Given the compound `CCCCN(CCCC)CCS(=O)(=O)c1ccc(/N=N/c2c(S(=O)(=O)O)cc3cc(S(=O)(=O)O)c(/N=N/c4ccc(S(=O)(=O)CCN(CCCC)CCCC)cc4)c(O)c3c2N)cc1` , what is its reported MEK Solubility?
Result: 7 mass %

Q: Queued: `CC(C)CNCCS(=O)(=O)c1ccc(/N=N/c2c(S(=O)(=O)O)cc3cc(S(=O)(=O)O)c(/N=N/c4ccc(S(=O)(=O)CCNCC(C)C)cc4)c(O)c3c2N)cc1`
Result: 7 mass %

Q: Here is the next compound: `CCCCCCN(CCCCCC)CCS(=O)(=O)c1ccc(/N=N/c2c(S(=O)(=O)O)cc3cc(S(=O)(=O)O)c(/N=N/c4ccc(S(=O)(=O)CCN(CCCCCC)CCCCCC)cc4)c(O)c3c2N)cc1`
Result: 10 mass %

Q: Follow-up item: `CC(C)(C)CC(C)(C)NCCS(=O)(=O)c1ccc(/N=N/c2c(S(=O)(=O)O)cc3cc(S(=O)(=O)O)c(/N=N/c4ccc(S(=O)(=O)CCNC(C)(C)CC(C)(C)C)cc4)c(O)c3c2N)cc1`
Result: 10 mass %

Q: // query: CCCCC(CC)COCCS(=O)(=O)c1ccc(/N=N/c2c(S(=O)(=O)O)cc3cc(S(=O)(=O)O)c(/N=N/c4ccc(S(=O)(=O)CCOCC(CC)CCCC)cc4)c(O)c3c2N)cc1 (centres unmarked)
Result: 10 mass %

Just for reference, patent US20220213341A1 is where these values come from.
